This document collects IC50 values reported for VEGFR2 (KDR) (Homo sapiens (Human), UniProt P35968).
endpoint: IC50 (nM)

{"molecule": "C=CC(=O)Nc1cc2c(Nc3ccc(Br)cc3F)ncnc2cc1OCCNC(=O)C1CCCN1C(C)=O (centres unmarked) [Example 105]", "testedSystem": "VEGFR2 (KDR) (Homo sapiens (Human), UniProt P35968)", "reading": 654}
{"molecule": "C=CC(=O)Nc1cc2c(Nc3ccc(Br)cc3F)ncnc2cc1OCCNC(=O)CN(C)CC [Example 56]", "testedSystem": "VEGFR2 (KDR) (Homo sapiens (Human), UniProt P35968)", "reading": 654}
{"molecule": "C=CC(=O)Nc1cc2c(Nc3ccc(Br)cc3F)ncnc2cc1SCCNC(C)=O [Example 43]", "testedSystem": "VEGFR2 (KDR) (Homo sapiens (Human), UniProt P35968)", "reading": 785}
{"molecule": "C=CC(=O)Nc1cc2c(Nc3ccc(Br)cc3F)ncnc2cc1OCCNC(=O)C(C)N(C)C (centres unmarked) [Example 58]", "testedSystem": "VEGFR2 (KDR) (Homo sapiens (Human), UniProt P35968)", "reading": 954}
{"molecule": "C=CC(=O)Nc1cc2c(Nc3ccc(Br)c(Cl)c3F)ncnc2cc1OCCNC(C)=O [Example 141]", "testedSystem": "VEGFR2 (KDR) (Homo sapiens (Human), UniProt P35968)", "reading": 56}
{"molecule": "C=CC(=O)Nc1cc2c(Nc3ccc(Br)cc3F)ncnc2cc1OCC(=O)NCCN(CC)CC [Example 65]", "testedSystem": "VEGFR2 (KDR) (Homo sapiens (Human), UniProt P35968)", "reading": 954}
{"molecule": "C=CC(=O)Nc1cc2c(Nc3cc(Cl)c(Cl)cc3F)ncnc2cc1OCCNC(=O)CS(C)(=O)=O [Example 139]", "testedSystem": "VEGFR2 (KDR) (Homo sapiens (Human), UniProt P35968)", "reading": 657}
{"molecule": "C=CC(=O)Nc1cc2c(Nc3ccc(Br)cc3F)ncnc2cc1OCC1CCN(C(=O)CN(C)C)CC1 [Example 10]", "testedSystem": "VEGFR2 (KDR) (Homo sapiens (Human), UniProt P35968)", "reading": 55}

====

System: skin cancer cell line, A431
Assay: Inhibitory effect on growth of cancer cell line A431, SRB
Assay type: cell-based
Conditions: Homo sapiens, A-431, 72 h, overexpressed EGFR1 (HER-1)
endpoint: IC50 (nM)

{"compound": "C=CC(=O)Nc1cc2c(Nc3ccc(Br)cc3F)ncnc2cc1OCCNC(=O)NC(C)CC (stereo not shown)", "endpoint": "IC50", "reading": 21}
{"compound": "C=CC(=O)Nc1cc2c(Nc3ccc(Br)cc3F)ncnc2cc1OCCNC(=O)C1CCCN1 (stereo not shown)", "endpoint": "IC50", "reading": 2380}
{"compound": "C=CC(=O)Nc1cc2c(Nc3ccc(Br)cc3Cl)ncnc2cc1OCCNC(C)=O", "endpoint": "IC50", "reading": 45}
{"compound": "C=CC(=O)Nc1cc2c(Nc3ccc(Br)cc3F)ncnc2cc1OCCNC(=O)C(C)CN(C)C (stereo not shown)", "endpoint": "IC50", "reading": 321}

====

Molecular target: UniProt P35968
For each record, check the reported IC50: if it is below 400 nM write condition met, else write condition not met.

{"compound": "C=CC(=O)Nc1cc2c(Nc3cc(Cl)c(Cl)cc3F)ncnc2cc1OCCNC(C)=O [Example 121]", "classAssignment": "condition met"}
{"compound": "C=CC(=O)Nc1cc2c(Nc3ccc(Br)cc3F)ncnc2cc1OCCNC(=O)c1ccc[nH]1 [Example 99]", "classAssignment": "condition not met"}
{"compound": "C=CC(=O)Nc1cc2c(Nc3ccc(Br)cc3F)ncnc2cc1OCCCNC [Example 17]", "classAssignment": "condition met"}
{"compound": "C=CC(=O)Nc1cc2c(Nc3cc(Cl)c(Cl)cc3F)ncnc2cc1OCCNC(=O)COC [Example 138]", "classAssignment": "condition not met"}
{"compound": "C=CC(=O)Nc1cc2c(Nc3ccc(Br)c(Cl)c3F)ncnc2cc1OCCNC(=O)COC [Example 146]", "classAssignment": "condition met"}
{"compound": "C=CC(=O)Nc1cc2c(Nc3ccc(Br)cc3F)ncnc2cc1OCCNC(=O)C(=C)C [Example 49]", "classAssignment": "condition not met"}
{"compound": "C=CC(=O)Nc1cc2c(Nc3cc(F)c(Br)cc3F)ncnc2cc1OCCNC(C)=O [Example 119]", "classAssignment": "condition not met"}
{"compound": "C=CC(=O)Nc1cc2c(Nc3ccc(Br)cc3F)ncnc2cc1OCCNC(=O)C=NOC [Example 73]", "classAssignment": "condition not met"}
{"compound": "C=CC(=O)Nc1cc2c(Nc3ccc(Br)c(Cl)c3F)ncnc2cc1OC[C@@H](C)NC(=O)CN(C)C [Example 159]", "classAssignment": "condition not met"}
{"compound": "C=CC(=O)Nc1cc2c(Nc3cc(Cl)c(Cl)cc3F)ncnc2cc1OCCN(C)C [Example 136]", "classAssignment": "condition not met"}
{"compound": "C=CC(=O)Nc1cc2c(Nc3ccc(Br)cc3F)ncnc2cc1OCCNC(=O)C(=O)OCC [Example 71]", "classAssignment": "condition met"}
{"compound": "C=CC(=O)Nc1cc2c(Nc3cc(OC)c(Cl)cc3F)ncnc2cc1OCCNC(C)=O [Example 129]", "classAssignment": "condition met"}
{"compound": "C=CC(=O)Nc1cc2c(Nc3ccc(Br)cc3F)ncnc2cc1OCCNC [Example 30]", "classAssignment": "condition not met"}
{"compound": "C=CC(=O)Nc1cc2c(Nc3ccc(Br)c(Cl)c3F)ncnc2cc1OCCNC(=O)CCN(CC)CC [Example 144]", "classAssignment": "condition met"}
{"compound": "C=CC(=O)Nc1cc2c(Nc3ccc(Br)cc3F)ncnc2cc1OCCNC(=O)CS(C)(=O)=O [Example 47]", "classAssignment": "condition met"}
{"compound": "C=CC(=O)Nc1cc2c(Nc3ccc(Br)cc3F)ncnc2cc1OCCNC(=O)NCCC [Example 34]", "classAssignment": "condition not met"}
{"compound": "C=CC(=O)Nc1cc2c(Nc3ccc(Br)c(Cl)c3F)ncnc2cc1OCCNC(=O)CO [Example 149]", "classAssignment": "condition met"}

====

System: breast cancer cell line, SK-Br3
Assay: Inhibitory effect on growth of cancer cell line SK-Br3, SRB
Format: cell-based
Conditions: Homo sapiens, SK-BR-3, 72 h, overexpressed EGFR2 (HER-2)
pIC50: −log10 of the molar value.

{"molecule": "C=CC(=O)Nc1cc2c(Nc3ccc(F)c(F)c3F)ncnc2cc1OCCNC(C)=O [Example 118]", "pIC50": 7.10}
{"molecule": "C=CC(=O)Nc1cc2c(Nc3ccc(Br)cc3F)ncnc2cc1OCCNC(=O)C(COC)N(C)C (centres unmarked) [Example 161]", "pIC50": 6.93}
{"molecule": "C=CC(=O)Nc1cc2c(Nc3ccc(Br)cc3F)ncnc2cc1OCCNC(=O)CN1CCCC1 [Example 107]", "pIC50": 6.92}
{"molecule": "C=CC(=O)Nc1cc2c(Nc3ccc(Br)c(Cl)c3F)ncnc2cc1OCCNC(=O)COC [Example 146]", "pIC50": 7.01}
{"molecule": "C=CC(=O)Nc1cc2c(Nc3ccc(Br)cc3F)ncnc2cc1OCC1CCN(C(=O)NCCC)CC1 [Example 9]", "pIC50": 6.58}
{"molecule": "C=CC(=O)Nc1cc2c(Nc3ccc(Br)cc3F)ncnc2cc1OCC1CCN(C(=O)C(F)(F)F)CC1 [Example 2]", "pIC50": 6.62}
{"molecule": "C=CC(=O)Nc1cc2c(Nc3ccc(Br)cc3F)ncnc2cc1OCCOC [Example 32]", "pIC50": 6.70}
{"molecule": "C=CC(=O)Nc1cc2c(Nc3cc(OC)c(Cl)cc3F)ncnc2cc1OCCNC(C)=O [Example 129]", "pIC50": 6.97}

====

Tested on: skin cancer cell line, A431
Assay: Inhibitory effect on growth of cancer cell line A431, SRB
Format: cell-based
Conditions: Homo sapiens, A-431, 72 h, overexpressed EGFR1 (HER-1)
Just a reminder that ties go to Not fulfilled: only IC50 strictly below 0.04 µM counts as Fulfilled.

{"molecule": "C=CC(=O)Nc1cc2c(Nc3c(F)cc(Br)cc3F)ncnc2cc1OCCNC(C)=O", "classAssignment": "Fulfilled"}
{"molecule": "C=CC(=O)Nc1cc2c(Nc3ccc(Br)cc3F)ncnc2cc1OCCCNC(=O)CS(C)(=O)=O", "classAssignment": "Not fulfilled"}
{"molecule": "C=CC(=O)Nc1cc2c(Nc3ccc(Cl)cc3F)ncnc2cc1OCCNC(C)=O", "classAssignment": "Fulfilled"}
{"molecule": "C=CC(=O)Nc1cc2c(Nc3ccc(Cl)nc3)ncnc2cc1OCCNC(C)=O", "classAssignment": "Not fulfilled"}
{"molecule": "C=CC(=O)Nc1cc2c(Nc3ccc(Br)c(Cl)c3F)ncnc2cc1OCCNC(=O)OC", "classAssignment": "Not fulfilled"}
{"molecule": "C=CC(=O)Nc1cc2c(Nc3ccc(Br)cc3F)ncnc2cc1OCCNC(=O)CN(C)CC", "classAssignment": "Not fulfilled"}
{"molecule": "C=CC(=O)Nc1cc2c(Nc3ccc(Br)cc3F)ncnc2cc1OCC(C)NC(=O)CC (centres unmarked)", "classAssignment": "Fulfilled"}
{"molecule": "C=CC(=O)Nc1cc2c(Nc3ccc(Br)cc3F)ncnc2cc1OCCNC(=O)NCC", "classAssignment": "Fulfilled"}
{"molecule": "C=CC(=O)Nc1cc2c(Nc3ccc(Br)cc3F)ncnc2cc1OCCNC(=S)NC", "classAssignment": "Not fulfilled"}
{"molecule": "C=CC(=O)Nc1cc2c(Nc3ccc(Br)cc3F)ncnc2cc1OCCNC(=O)C1CCCN1C(C)=O (centres unmarked)", "classAssignment": "Fulfilled"}
{"molecule": "C=CC(=O)Nc1cc2c(Nc3cc(Cl)c(Cl)cc3Cl)ncnc2cc1OCCNC(C)=O", "classAssignment": "Not fulfilled"}
{"molecule": "C=CC(=O)Nc1cc2c(Nc3ccc(Br)cc3F)ncnc2cc1OCCNC(=O)CN(C)C", "classAssignment": "Fulfilled"}
{"molecule": "C=CC(=O)Nc1cc2c(Nc3ccc(Br)cc3F)ncnc2cc1OCC(=O)NCCN(CC)CC", "classAssignment": "Not fulfilled"}
{"molecule": "C=CC(=O)Nc1cc2c(Nc3ccc(Br)cc3F)ncnc2cc1OCCNC(=O)CN1CCCC1", "classAssignment": "Not fulfilled"}
{"molecule": "C=CC(=O)Nc1cc2c(Nc3ccc(Br)cc3F)ncnc2cc1OCC(C)NC(C)=O (centres unmarked)", "classAssignment": "Not fulfilled"}
